Target: cIAP2-BIR2 (Homo sapiens, UniProt Q13489)
Sequence (Q13489 129-246): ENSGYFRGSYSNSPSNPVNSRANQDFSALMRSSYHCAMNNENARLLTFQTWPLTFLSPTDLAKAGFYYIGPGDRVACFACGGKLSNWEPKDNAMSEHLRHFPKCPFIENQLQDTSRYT
Test: FP competition assay, displacement of SMAC-rhodamine
RESULT_TYPE: Ki

>>> data_value("CN[C@@H](C)C(=O)N[C@@H](CCC(N)=O)C(=O)N1CCC[C@H]1C(=O)N[C@@H]1CCCc2ccccc21")
"4.07 µM"
>>> data_value("CC(C)[C@H](NC(=O)[C@@H](N)CO)C(=O)N[C@@H](C)C(=O)Nc1cccc2ccccc12")
"22.4 µM"
>>> data_value("CN[C@@H](C)C(=O)N[C@H](C(=O)N1CCC[C@@H]1C(=O)Nc1cccc2ccccc12)C(C)C")
"3.35 µM"
>>> data_value("CN[C@@H](C)C(=O)N[C@@H](CC(=O)O)C(=O)N1CCC[C@H]1C(=O)N[C@@H]1CCCc2ccccc21")
"> 56.7 µM"

Origin of measurements: paper PMC5019375
